System: Tobacco mosaic virus
Experiment: In vivo antiviral activity against Tobacco mosaic virus strain U1 (TMV) infected left side of Nicotiana glutinosa leaves assessed as decrease in local lesion numbers at 2.5 uM co-incubated with virus for 30 min before inoculation onto leaves measured at 3-4 days after viral challenge by half-leaf method
Format: functional
Quick list: inhibition in vivo at 2.5 µM per entry.
A number alone suffices; assume %.

>  <molecule>
COC(=O)[C@]12OC[C@]34[C@H]([C@@H](O)[C@@H]1O)[C@@]1(C)CC(=O)C(O[C@@H]5O[C@H](CO)[C@@H](O)[C@H](O)[C@H]5O)=C(C)[C@@H]1C[C@H]3OC(=O)[C@H](OC(=O)/C=C(\C)C(C)(C)O)[C@@H]24 [Yadanzioside L]

>  <result.unit>
%

>  <inhibition in vivo at 2.5 µM>
35

$$$$

Exercise: Report measured inhibition in vivo at 2.5 µM; entry is "COC(=O)[C@@]12OC[C@]34[C@H]([C@@H](O)[C@@H]1O)[C@@]1(C)CC(=O)C(O)=C(C)[C@@H]1C[C@H]3OC(=O)[C@H](OC(C)=O)[C@@H]24"
Key: 40.6

Exercise: Retrieve inhibition in vivo at 2.5 µM measured for COC(=O)[C@]12OC[C@]34[C@H]([C@@H](O)[C@@H]1O)[C@@]1(C)[C@H](O)[C@@H](O)C=C(C)[C@@H]1C[C@H]3OC(=O)[C@H](OC(C)=O)[C@@H]24 [YADANZIOSIDE D] and print it.
Key: 38.5

Exercise: Consider the molecule "CC1=CC(=O)[C@@H](O)[C@]2(C)[C@H]3[C@@H](O)[C@H](O)[C@]4(C)OC[C@@]35[C@@H](C[C@@H]12)OC(=O)[C@H](O)[C@]54O" . State its measured inhibition in vivo at 2.5 µM.
Key: 29.1

Entry source: ChEMBL document CHEMBL3045676
